Each recorded value in this set is attributed to paper PMC5315062.

Assay: Single-dose pharmacokinetics of ponatinib in rats
Format: in vivo, Sprague–Dawley rats
Conditions: both, Sprague-Dawley, rat, plasma, po, 15 mg/kg, T 1/2, rat, i.g. 15.0 mg/kg
REPORTED_METRIC: half-life (h)
Answer with a number only, understood to be in h.

Req: Given Cc1ccc(C(=O)Nc2ccc(CN3CCN(C)CC3)c(C(F)(F)F)c2)cc1C#Cc1cnc2cccnn12 , state its recorded half-life.
Resp: 9.7

###

Test: Single-dose pharmacokinetics of ponatinib in rats
Assay type: in vivo, Sprague–Dawley rats
Settings: both, Sprague-Dawley, rat, plasma, po, 15 mg/kg
REPORTED_METRIC: Cmax (ng/mL)
Answer with a number only, understood to be in ng/mL.

Req: Given Cc1ccc(C(=O)Nc2ccc(CN3CCN(C)CC3)c(C(F)(F)F)c2)cc1C#Cc1cnc2cccnn12 , state its recorded Cmax.
Resp: 285
